Can you tell me apparent KD of MS2 coat protein for the items I'm about to list?
- Tested on: MS2 coat protein
- METHOD: apparent KD of MS2 coat protein; higher = weaker reporter binding
- MEASUREMENT CONDITIONS: Eterna round: R107; input ligand: theophylline 2 mM
Value and unit, in that order.

So, AAAAUCCUACCUGAGGAUCACCCUGGUGAAGGAGCGCCCGAAAGGGCAGGUAGGUCGCACCUGAGGAUCACCCGGGUAACCUAAA [ArgEX 14 #DoubleMS2 #OpenEnded #AlternativeMS2] ? Its apparent KD of MS2 coat protein was 200 nM

So, GAGCGCGUGGACUGGCGUGCUCCGCUCCGUCGAGGACCGGUACGGCCGCCACUCGACAUGAGGAUCACCCAUGUGCGCGCUCGCU [#1 Exclusion - Tryptophan A Attempt #23 (HarryS)] ? Its apparent KD of MS2 coat protein was 27.8 nM

So, AAGACCAGGAGGUGAUCCUAACUGGUCCAACGAGGACCGGUACGGCCGCCACUCGAAUAAACAUGAGGAUCACCCAUGUAAUAAU [T''-M-T'-T-MS2] ? Its apparent KD of MS2 coat protein was 90.1 nM

So, CCCUGGGUGGGAAGGAGCGCAUAUUCAACAUGAGGAUCACCCAUGUACAGACGUGAGUCAUUGCAGGUAGGUCGCCCACCCAGGG [SS-ArgB21] ? Its apparent KD of MS2 coat protein was 14.8 nM

So, AACAUGAGGAUCACCCAUGUUGUAAGGGAAGGAGCGCCUAAUCAGGCAGGUAGGUCGCCCAACAUGAGGAUCACCCAUGUUGUAU [Exclusion Arginine A 2] ? Its apparent KD of MS2 coat protein was 66.9 nM

So, GGUUGGUGUAGAGAUAUAUUGAUUACUGAAGGAGCGGGACGAAACCCAGGUAGGUCGCAGAGAUCCACAUGAGGAUCACCCAUGU [!0.M] ? Its apparent KD of MS2 coat protein was 61.4 nM

Numbers sourced from the supplement of paper PMC9170038.
